# Target entity: human ether-à-go-go-related gene (hERG) potassium channel (human, UniProt Q12809);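 also: peak tail current of the secondary pulse compared with the same well before compound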
# Sequence (Q12809 whole entry, looked up): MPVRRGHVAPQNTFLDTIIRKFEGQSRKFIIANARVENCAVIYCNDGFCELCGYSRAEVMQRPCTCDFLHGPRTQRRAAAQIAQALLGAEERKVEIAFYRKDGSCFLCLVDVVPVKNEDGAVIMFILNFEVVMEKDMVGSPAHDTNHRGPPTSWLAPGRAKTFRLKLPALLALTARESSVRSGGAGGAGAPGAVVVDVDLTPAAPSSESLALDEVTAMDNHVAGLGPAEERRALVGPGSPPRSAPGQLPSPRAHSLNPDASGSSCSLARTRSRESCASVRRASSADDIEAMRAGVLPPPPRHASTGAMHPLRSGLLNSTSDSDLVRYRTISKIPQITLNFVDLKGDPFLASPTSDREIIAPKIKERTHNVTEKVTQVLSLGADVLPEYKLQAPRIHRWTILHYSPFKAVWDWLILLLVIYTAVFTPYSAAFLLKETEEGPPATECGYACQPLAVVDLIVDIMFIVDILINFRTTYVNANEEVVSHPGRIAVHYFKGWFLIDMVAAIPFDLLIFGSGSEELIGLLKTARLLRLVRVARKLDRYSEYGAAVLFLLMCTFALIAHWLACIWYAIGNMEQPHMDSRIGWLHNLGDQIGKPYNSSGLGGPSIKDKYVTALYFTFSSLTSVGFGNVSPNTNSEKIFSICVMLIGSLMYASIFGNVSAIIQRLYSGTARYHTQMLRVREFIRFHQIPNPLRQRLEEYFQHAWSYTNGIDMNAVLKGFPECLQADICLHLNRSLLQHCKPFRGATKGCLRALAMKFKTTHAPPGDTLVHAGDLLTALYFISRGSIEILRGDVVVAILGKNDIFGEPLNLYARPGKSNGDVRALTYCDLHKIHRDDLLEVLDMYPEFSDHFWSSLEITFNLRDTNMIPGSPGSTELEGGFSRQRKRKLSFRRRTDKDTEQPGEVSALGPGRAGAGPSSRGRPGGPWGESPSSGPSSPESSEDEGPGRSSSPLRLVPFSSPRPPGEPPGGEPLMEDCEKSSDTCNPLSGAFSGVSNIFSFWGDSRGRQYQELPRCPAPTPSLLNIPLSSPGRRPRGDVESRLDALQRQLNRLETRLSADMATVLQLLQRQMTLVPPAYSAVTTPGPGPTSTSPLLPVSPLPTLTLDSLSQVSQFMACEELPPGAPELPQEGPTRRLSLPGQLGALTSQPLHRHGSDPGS
# Assay notes: primary screen, population patch clamp on CHO cells stably expressing hERG; higher = less effect of the substance
About 14,000 (4.5%) of roughly 310,000 compounds showed an effect of 50% or more. Effects have a minus sign here. The entries come from a sample that favours strong results as a whole.
Measured metric: hERG current change (%, negative = inhibition) at 10uM (%)
One number for each entry, in %.

As a guide, the following entries are already answered.
CC(C)CNS(=O)(=O)c1ccc(CCC(=O)N2CCN(Cc3ccccc3)CC2)cc1 | -35.2
O=c1oc(Nc2ccc(F)cc2)nc2ccccc12 | 6.68
S=c1[nH]nc(-c2ccc3ccccc3n2)n1-c1ccc2c(c1)OCCO2 | 17.7
CCNS(=O)(=O)c1ccc(CCC(=O)N2CCN(c3ccccc3)CC2)cc1 | -16.8
CCn1c(=O)cc(SCC(=O)NCCC2=CCCCC2)c2ccccc21 | -6.46
Cn1c(SCc2cccc([N+](=O)[O-])c2)nc2c(c1=O)SCC2 | -36.6

For each of the compounds below, note its hERG current change (%, negative = inhibition) at 10uM.
1. CC1(C)CC(NC(=S)NCc2ccco2)CC(C)(C)N1
2. O=C(Nn1c(C2CCCCC2)nc2ccccc2c1=O)c1ccc(Cl)c([N+](=O)[O-])c1
3. COc1cnc(-c2ccccn2)nc1NC(C)C
4. CC(C)CNS(=O)(=O)c1ccc(CCC(=O)N2CCN(Cc3ccc4c(c3)OCO4)CC2)cc1
5. Cn1c(SCC(=O)Nc2ccccc2F)nc2c(c1=O)SCC2
6. Br.Cc1cccc(N2C(=O)SC(SC(=Nc3ccccc3)Nc3ccccc3)C2=O)c1 (stereo not drawn)
7. CCc1nc(SCC(=O)Nc2cccc3ccccc23)[nH]c(=O)c1C

1: 18.9; 2: -9.26; 3: 7.65; 4: -54.4; 5: -9.41; 6: 15.3; 7: 8.16
